# Assayed Target: sterol 14-reductase (Rattus norvegicus)
# Construct: to give a microsome which was used as an enzyme source of sterol 14-reductase; from tissue
# Sequence (A0ACM8Q6X4 1-418): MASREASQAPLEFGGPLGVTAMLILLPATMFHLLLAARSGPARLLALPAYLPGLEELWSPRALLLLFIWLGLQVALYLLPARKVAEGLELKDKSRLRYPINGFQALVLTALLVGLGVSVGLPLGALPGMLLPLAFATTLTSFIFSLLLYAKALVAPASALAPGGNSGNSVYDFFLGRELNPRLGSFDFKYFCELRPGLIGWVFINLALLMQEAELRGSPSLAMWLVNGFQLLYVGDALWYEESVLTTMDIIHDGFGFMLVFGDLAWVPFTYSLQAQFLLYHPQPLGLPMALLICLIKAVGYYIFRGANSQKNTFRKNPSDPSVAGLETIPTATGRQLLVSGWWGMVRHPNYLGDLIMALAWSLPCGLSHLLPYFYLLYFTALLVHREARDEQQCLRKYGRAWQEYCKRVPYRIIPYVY
# Assay Text: Sterol 14-reductase assay with rat liver microsomes (substrate 4,4-dimethyl-5α-cholesta-7,14-dien-3β-ol, GLC)
# Type: biochemical, Sprague-Dawley rats
# Measurement Context: read-out: Enzyme Activity (relative in vitro activity for sterol 14-reductase, IC50 class)
Parameter: IC50

CCOc1cc2c(cc1OCC)C1=C(CC)c3ccc(OCC)c(OCC)c3C(CC(C)=O)N1CC2 (centres unmarked) [Compound No. 44]    10 to 100 µM
COc1cc2c(cc1OC)-c1c(CCCI)c3ccc(OC)c(OC)c3c[n+]1CC2 [Compound No. 16, 13-Iodopropylpalmatine]    10 to 100 µM
CCOc1cc2c(cc1OCC)-c1c(CC)c3ccc(OCC)c(OCC)c3c[n+]1CC2 [Compound No. 5, 2,3,9,10-Tetraethoxy-13-ethylberberine]    ≤ 1 µM

Exercise: IC50 lookup needed for CCCc1c2[n+](cc3c(OC)c(OC)ccc13)CCc1cc(OC)c(OC)cc1-2 [Compound No. 11, 13-n-propylpalmatine] , thanks.
Solution: 10 to 100 µM

Exercise: Then what about the molecule CCCCc1c2[n+](cc3c(OC)c(OC)ccc13)CCc1cc(OC)c(OC)cc1-2 [Compound No. 12, 13-n-butylpalmatine] ?
Solution: 10 to 100 µM

Exercise: What do you have for CCOc1cc2c(cc1OCC)C1=C(CC)c3ccc(OCC)c(OCC)c3C(CC(=O)C(C)C)N1CC2 (centres unmarked) [Compound No. 45] ?
Solution: 10 to 100 µM

Exercise: How about this molecule: Cc1c2[n+](cc3c(O)c(O)ccc13)CCc1cc(O)c(O)cc1-2 [Compound No. 4, 2,3,9,10-Tetrahydroxy-13-methylberberine]
Solution: 10 to 100 µM

Exercise: // same read-out, input: CCc1c2[n+](cc3c(OC)c(OC)ccc13)CCc1cc3c(cc1-2)OCO3 [Compound No. 6, 13-Ethylberberine]
Solution: ≤ 1 µM

Exercise: Do the same for Oc1cc2c(cc1O)-c1cc3ccc(O)c(O)c3c[n+]1CC2 [Compound No. 3, 2,3,9,10-Tetrahydroxyberberine] please
Solution: ≥ 100 µM
